System: Human betaherpesvirus 5
Assay: Antiviral activity against Human cytomegalovirus T2899 expressing wild type UL27 kinase with N289D, D298G, N300G, P307L,V310A, D351N, I367V mutant gene by SEAP yield reduction assay
Type: functional, organism-based
Conditions: Human betaherpesvirus 5, T2899
measuredProperty: pEC50
// field semantics: pEC50 = negative decimal log of concentration (mol/L)

pEC50 reported for this molecule CC(C)Nc1nc2cc(Cl)c(Cl)cc2n1[C@H]1O[C@@H](CO)[C@H](O)[C@@H]1O [MARIBAVIR] : 7.08

====

Tested on: Human betaherpesvirus 5
Experiment: Antiviral activity against Human cytomegalovirus T2867 expressing UL27 kinase with A269T mutant gene by SEAP yield reduction assay
Format: functional, organism-based
Conditions: Human betaherpesvirus 5, T2867
measuredProperty: pEC50
Friendly reminder that pEC50 comes from taking -log10 of the concentration in mol/L.

Quick note, pEC50 for `CC(C)Nc1nc2cc(Cl)c(Cl)cc2n1[C@H]1O[C@@H](CO)[C@H](O)[C@@H]1O` landed at 6.72
